Attribution: patent US10253002B2

- Tested on: S. pneumoniae isolates
- RUN DESCRIPTION: Disk diffusion susceptibility (CLSI/EUCAST), Example 5
- Format: cell-based, Streptococcus pneumoniae
- CONDITION SUMMARY: WCH158
Mark each entry t if its disk diffusion zone diameter sits below 30 mm, and f for all others.

[
  {
    "MOLECULE": "Cc1onc(-c2ccccc2)c1C(=O)N[C@@H]1C(=O)N2[C@@H]1SC(C)(C)[C@@H]2C(=O)O [Oxacillin]",
    "MEASURED TARGET": "S. pneumoniae isolates",
    "GROUP LABEL": "t"
  },
  {
    "MOLECULE": "O=C(N[C@H](CO)[C@H](O)c1ccc([N+](=O)[O-])cc1)C(Cl)Cl [Chloramphenicol]",
    "MEASURED TARGET": "S. pneumoniae isolates",
    "GROUP LABEL": "f"
  },
  {
    "MOLECULE": "CC[C@H]1OC(=O)[C@H](C)[C@@H](O[C@H]2C[C@@](C)(OC)[C@@H](O)[C@H](C)O2)[C@H](C)[C@@H](O[C@@H]2O[C@H](C)C[C@H](N(C)C)[C@H]2O)[C@](C)(OC)C[C@@H](C)C(=O)[C@H](C)[C@@H](O)[C@]1(C)O [Clarithromycin]",
    "MEASURED TARGET": "S. pneumoniae isolates",
    "GROUP LABEL": "f"
  },
  {
    "MOLECULE": "CN(C)[C@@H]1C(O)=C(C(N)=O)C(=O)[C@@]2(O)C(O)=C3C(=O)c4c(O)cccc4[C@@](C)(O)[C@H]3C[C@@H]12 [Tetracycline]",
    "MEASURED TARGET": "S. pneumoniae isolates",
    "GROUP LABEL": "f"
  },
  {
    "MOLECULE": "CC[C@H]1OC(=O)[C@H](C)[C@@H](O[C@H]2C[C@@](C)(OC)[C@@H](O)[C@H](C)O2)[C@H](C)[C@@H](O[C@@H]2O[C@H](C)C[C@H](N(C)C)[C@H]2O)[C@](C)(O)C[C@@H](C)C(=O)[C@H](C)[C@@H](O)[C@]1(C)O [Erythromycin]",
    "MEASURED TARGET": "S. pneumoniae isolates",
    "GROUP LABEL": "f"
  },
  {
    "MOLECULE": "CC1(C)S[C@@H]2[C@H](NC(=O)[C@H](N)c3ccccc3)C(=O)N2[C@H]1C(=O)O [Ampicillin]",
    "MEASURED TARGET": "S. pneumoniae isolates",
    "GROUP LABEL": "f"
  },
  {
    "MOLECULE": "CN[C@H](CC(C)C)C(=O)N[C@H]1C(=O)N[C@@H](CC(N)=O)C(=O)N[C@H]2C(=O)N[C@H]3C(=O)N[C@H](C(=O)N[C@H](C(=O)O)c4cc(O)cc(O)c4-c4cc3ccc4O)[C@H](O)c3ccc(c(Cl)c3)Oc3cc2cc(c3O[C@@H]2O[C@H](CO)[C@@H](O)[C@H](O)[C@H]2O[C@H]2C[C@](C)(N)[C@H](O)[C@H](C)O2)Oc2ccc(cc2Cl)[C@H]1O [Vancomycin]",
    "MEASURED TARGET": "S. pneumoniae isolates",
    "GROUP LABEL": "t"
  },
  {
    "MOLECULE": "CO[C@H]1/C=C/O[C@@]2(C)Oc3c(C)c(O)c4c(O)c(c(/C=N/N5CCN(C)CC5)c(O)c4c3C2=O)NC(=O)/C(C)=C\\C=C\\[C@H](C)[C@H](O)[C@@H](C)[C@@H](O)[C@@H](C)[C@H](OC(C)=O)[C@@H]1C [Rifampicin]",
    "MEASURED TARGET": "S. pneumoniae isolates",
    "GROUP LABEL": "f"
  },
  {
    "MOLECULE": "CCC[C@@H]1C[C@@H](C(=O)N[C@@H]([C@H]2O[C@H](SC)[C@H](O)[C@@H](O)[C@H]2O)[C@H](C)Cl)N(C)C1 [Clindamycin]",
    "MEASURED TARGET": "S. pneumoniae isolates",
    "GROUP LABEL": "f"
  }
]

====

- Tested on: VRE
- RUN DESCRIPTION: Broth microdilution MIC, Example 7 (NCL812 and analogues)
- Assay type: cell-based, Enterococcus spp.
- CONDITION SUMMARY: isolate VRE 2; 24 hours; 1st and 2nd replicate rows
// reported MIC (μg/ml) at 24 hours, VRE 2 per item

[
  {
    "COMPOUND": "Cl.N=C(NN=Cc1cccc(C(F)(F)F)c1)NN=Cc1cccc(C(F)(F)F)c1 [NCL037]",
    "MEASURED TARGET": "VRE",
    "COMPARATOR": ">",
    "MIC (μg/ml) at 24 hours, VRE 2 (µg/mL)": 128
  },
  {
    "COMPOUND": "O=C(N/N=C/c1ccccc1C(F)(F)F)N/N=C/c1ccccc1C(F)(F)F [NCL013]",
    "MEASURED TARGET": "VRE",
    "COMPARATOR": ">",
    "MIC (μg/ml) at 24 hours, VRE 2 (µg/mL)": 128
  },
  {
    "COMPOUND": "Cl.N=C(N)N/N=C/c1ccccc1Cl [NCL015]",
    "MEASURED TARGET": "VRE",
    "COMPARATOR": "=",
    "MIC (μg/ml) at 24 hours, VRE 2 (µg/mL)": 128
  },
  {
    "COMPOUND": "Cc1cccc(/C=N/NC(=N)N)c1.Cl [NCL046]",
    "MEASURED TARGET": "VRE",
    "COMPARATOR": ">",
    "MIC (μg/ml) at 24 hours, VRE 2 (µg/mL)": 128
  },
  {
    "COMPOUND": "COc1ccccc1C=NNC(=N)NN=Cc1ccccc1OC.Cl [NCL028]",
    "MEASURED TARGET": "VRE",
    "COMPARATOR": "=",
    "MIC (μg/ml) at 24 hours, VRE 2 (µg/mL)": 128
  },
  {
    "COMPOUND": "S=C(N/N=C/c1cccc(Cl)c1)N/N=C/c1cccc(Cl)c1 [NCL070]",
    "MEASURED TARGET": "VRE",
    "COMPARATOR": "=",
    "MIC (μg/ml) at 24 hours, VRE 2 (µg/mL)": 32
  },
  {
    "COMPOUND": "Cl.N=C(N/N=C/c1ccccc1Cl)N/N=C/c1ccccc1Cl [NCL020]",
    "MEASURED TARGET": "VRE",
    "COMPARATOR": ">",
    "MIC (μg/ml) at 24 hours, VRE 2 (µg/mL)": 128
  },
  {
    "COMPOUND": "COc1cccc(/C=N/NC(N)=O)c1 [NCL059]",
    "MEASURED TARGET": "VRE",
    "COMPARATOR": ">",
    "MIC (μg/ml) at 24 hours, VRE 2 (µg/mL)": 128
  },
  {
    "COMPOUND": "CC(=NNC(=N)NN)c1ccc(Cl)cc1.Cl [NCL069]",
    "MEASURED TARGET": "VRE",
    "COMPARATOR": "=",
    "MIC (μg/ml) at 24 hours, VRE 2 (µg/mL)": 64
  },
  {
    "COMPOUND": "O=C(NN=Cc1cccc(C(F)(F)F)c1)NN=Cc1cccc(C(F)(F)F)c1 [NCL011]",
    "MEASURED TARGET": "VRE",
    "COMPARATOR": "=",
    "MIC (μg/ml) at 24 hours, VRE 2 (µg/mL)": 32
  }
]

====

- Test system: VRE
- RUN DESCRIPTION: Broth microdilution MIC, Example 7 (NCL812 and analogues)
- Assay type: cell-based, Enterococcus spp.
- CONDITION SUMMARY: isolate VRE 2; 24 hours; 1st and 2nd replicate rows
QUANTITY: MIC (μg/ml) at 24 hours, VRE 2

[
  {
    "SMILES": "O=C(N/N=C/c1cccc(F)c1)N/N=C/c1cccc(F)c1",
    "QUANTITY": "MIC (μg/ml) at 24 hours, VRE 2",
    "RESULT": ">128 µg/mL"
  },
  {
    "SMILES": "N#Cc1ccc(/C=N/NC(N)=O)cc1",
    "QUANTITY": "MIC (μg/ml) at 24 hours, VRE 2",
    "RESULT": ">128 µg/mL"
  },
  {
    "SMILES": "Cl.N=C(N)N/N=C/c1ccc(C(F)(F)F)cc1",
    "QUANTITY": "MIC (μg/ml) at 24 hours, VRE 2",
    "RESULT": "64 µg/mL"
  },
  {
    "SMILES": "N#Cc1cccc(/C=N/NC(N)=O)c1",
    "QUANTITY": "MIC (μg/ml) at 24 hours, VRE 2",
    "RESULT": ">128 µg/mL"
  },
  {
    "SMILES": "Cl.N#Cc1ccc(/C=N/NC(=N)N)cc1",
    "QUANTITY": "MIC (μg/ml) at 24 hours, VRE 2",
    "RESULT": ">128 µg/mL"
  },
  {
    "SMILES": "COc1ccc(/C=N/NC(N)=O)cc1",
    "QUANTITY": "MIC (μg/ml) at 24 hours, VRE 2",
    "RESULT": ">128 µg/mL"
  },
  {
    "SMILES": "Cl.N=C(N/N=C/c1ccc(F)cc1)N/N=C/c1ccc(F)cc1",
    "QUANTITY": "MIC (μg/ml) at 24 hours, VRE 2",
    "RESULT": "8 µg/mL"
  },
  {
    "SMILES": "NC(=O)N/N=C/c1cccc(Cl)c1",
    "QUANTITY": "MIC (μg/ml) at 24 hours, VRE 2",
    "RESULT": ">128 µg/mL"
  },
  {
    "SMILES": "Cl.N=C(N/N=C/c1ccc(C(F)(F)F)cc1)N/N=C/c1ccc(C(F)(F)F)cc1",
    "QUANTITY": "MIC (μg/ml) at 24 hours, VRE 2",
    "RESULT": "4 µg/mL"
  },
  {
    "SMILES": "COc1cccc(C=NNC(=N)NN=Cc2cccc(OC)c2)c1.Cl",
    "QUANTITY": "MIC (μg/ml) at 24 hours, VRE 2",
    "RESULT": "32 µg/mL"
  },
  {
    "SMILES": "Cl.N=C(N)NN=Cc1cccc(F)c1",
    "QUANTITY": "MIC (μg/ml) at 24 hours, VRE 2",
    "RESULT": ">128 µg/mL"
  },
  {
    "SMILES": "Cc1cccc(C=NNC(=O)NN=Cc2cccc(C)c2)c1",
    "QUANTITY": "MIC (μg/ml) at 24 hours, VRE 2",
    "RESULT": ">128 µg/mL"
  }
]
